- Target: T1, sIL-6R (soluble IL-6 receptor; SBH Sciences) (human, UniProt P08887 20-365)
- T1 construct: also called human IL-6R
- T1 sequence: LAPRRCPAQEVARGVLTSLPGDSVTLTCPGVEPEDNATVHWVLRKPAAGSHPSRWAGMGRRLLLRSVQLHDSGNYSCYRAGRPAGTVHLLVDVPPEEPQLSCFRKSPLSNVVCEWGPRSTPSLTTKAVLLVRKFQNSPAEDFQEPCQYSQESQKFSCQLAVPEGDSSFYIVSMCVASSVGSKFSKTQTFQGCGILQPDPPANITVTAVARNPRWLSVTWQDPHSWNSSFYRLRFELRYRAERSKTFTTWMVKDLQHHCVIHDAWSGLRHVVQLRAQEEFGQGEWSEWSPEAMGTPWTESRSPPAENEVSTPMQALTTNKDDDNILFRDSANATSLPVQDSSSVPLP
- Assay comment: SPR (BIAcore 3000), antibody on chip, sIL-6R analyte, 25 C
Exercise: state measured Relative Affinity for each of the binders provided.

q: Entry 17# (antibody, human IgG1, kappa, V domains shown, also called Sample # 17) VH: QVQLQESGPGLVRPSQTLSLTCTVSGYSITSDHAWSWVRQPPGRGLEWIGFISYSGITTYNPSLKSRVTMLRDTSKNQFSLRLSSVTAADTAVYYCARCLARTTAMDYWGQGSLVTVSS VL: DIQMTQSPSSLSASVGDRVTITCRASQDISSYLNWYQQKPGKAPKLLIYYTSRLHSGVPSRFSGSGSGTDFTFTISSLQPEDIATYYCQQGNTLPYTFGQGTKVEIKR : reported Relative Affinity = ?
a: 4.8 fold vs 25 (Tocilizumab)

q: Entry 16# (antibody, human IgG1, kappa, V domains shown, also called Sample # 16) VH: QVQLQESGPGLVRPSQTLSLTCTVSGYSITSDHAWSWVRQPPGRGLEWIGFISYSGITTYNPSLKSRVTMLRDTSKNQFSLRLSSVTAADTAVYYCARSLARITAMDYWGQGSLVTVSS VL: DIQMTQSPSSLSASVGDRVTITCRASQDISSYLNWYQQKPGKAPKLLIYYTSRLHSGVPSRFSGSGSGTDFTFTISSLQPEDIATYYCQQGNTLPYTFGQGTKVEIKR : reported Relative Affinity = ?
a: 9.1 fold vs 25 (Tocilizumab)

q: Entry 18# (antibody, human IgG1, kappa, V domains shown, also called Sample # 18) VH: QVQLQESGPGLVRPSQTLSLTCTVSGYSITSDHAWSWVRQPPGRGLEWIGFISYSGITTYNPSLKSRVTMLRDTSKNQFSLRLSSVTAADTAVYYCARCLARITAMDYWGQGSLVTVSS VL: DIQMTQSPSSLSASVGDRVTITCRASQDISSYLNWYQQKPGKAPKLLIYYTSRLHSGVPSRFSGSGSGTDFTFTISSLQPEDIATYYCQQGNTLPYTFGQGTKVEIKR : reported Relative Affinity = ?
a: 10.2 fold vs 25 (Tocilizumab)
